assay: Metabolic stability in human liver microsomes assessed as compound remaining after 60 mins; format: ADME, Microsome; conditions: read-out: Stability
measurement.kind: remaining at 1 h (%)

>>> meas_value("CC(C)(C)NC(=O)Cn1c(-c2cccc(OC(F)(F)F)c2)cc2cc(C(C)(C)C(=O)NC(C)(C)C)ccc21")
0.82
>>> meas_value("CC(C)(C)NC(=O)Cn1c(-c2ccccc2OC(F)(F)F)cc2cc(C(C)(C)C(=O)NC(C)(C)C)ccc21")
0.04
>>> meas_value("CC(C)(C)NC(=O)Cn1c(-c2ccc(OC(F)(F)F)cc2)cc2cc(C(C)(C)C(=O)NC(C)(C)C)ccc21")
20

The origin of these recorded values is ChEMBL document CHEMBL1641497.
